- Test system: MS2 coat protein
- Method description: apparent KD of MS2 coat protein; higher = weaker reporter binding
- Setup conditions: Eterna round: R107; input ligand: theophylline 2 mM
apparent KD of MS2 coat protein listing for selected sequences.
Just the number please, in nM, no unit attached.

Observe how each entry below is paired with its result.
>>> print(df.to_string())
                         construct_sequence  measured_value
0  UCGGACAUGAGGAUCACCCAUGUAAAUCCUCGAGGACCGGUACGGCCGCCACUCGAACGAGUGGCACGCGAGUGCGCACUCGCGU [aEa]              34
1  GGAUUACGAAAGUAGUCCAUCAAGUUCGAGCGAGGACCGGUACGGCCGCCACUCGAACAUGAGGAUCACCCAUGUAGCGAAAGCU [Tryptophan A 21]             371

As a next step, examine the sequence that follows.
INPUT: Entry under review: GCACAUGAGGAUCACCCAUGUAUUACUGAAGGAGCGAGACAGAACUCAGGUAGGUCGCAGACUGCACAAUUGCGGACGACAUGGG [Exclusion Arginine A GF22] . Reported apparent KD of MS2 coat protein?
OUTPUT: 31.2

###

Measured apparent KD of K4 kissing-loop reporter by item
- System: K4 kissing-loop RNA reporter;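 also: bound reporter read as fluorescence of individual clusters on recovered sequencing chips by microscopy, with normalized cluster intensities fitted with a binding model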
- Method description: apparent KD of K4 kissing-loop reporter; higher = weaker reporter binding
- Setup conditions: Eterna round: R107; input ligand: theophylline 20 uM
Returns: string containing the numeric result and its unit.

Past entries and their recorded results:
Construct sequence	apparent KD of K4 kissing-loop reporter
UGUGAUGAGUAGAGUGAUGUUUUGAAGGAUACCAGAGUGUUGUUAUUCCCUUGGCAGCUUGAGUGAUGUUUGAUGUUGUUGUAGU [zizmullin]	246 nM
GUACGCUCCCGAGUGAUGUUCGGUAAUCGCUAGGAUAUCGCUUUUGCGAGAAGGAGCGGAAUGAGGAAACUCGUUCUGAGUGUAC [FMN A 26]	386 nM
AAAUAGAUCAGUCAUCCAGUGAUGUUGGAAGGAGCGUGCGAAAGCACAGGUAGGUCGCCAAAAUAAAAGUGGCUGAUCAAAAUAA	594 nM
ACUAGAAAACCAGUGAUGUUGGCCUGGGAUACCAGCUUCUAUUAUAGCCCUUGGCAGCCCUUUAGUACAAGUGACCUUGCGACCG [theeternabot_sameState_KL_Theo_A_9]	217 nM

INPUT: Which apparent KD of K4 kissing-loop reporter is reported for this sequence? AUGUCGUUAUAGUGAGUGAUGUUCACUGUGCGAGGACCGGUACGGCCGCCACUCGAGAGUGGUGGACACUGAGUCACUCUGACAC [Tryp A Ex t2]
OUTPUT: 111 nM

INPUT: Suppose we examine the sequence UGUAUGUGAUUUGAUACCAGACCAGCUGGUGGAAUCUGAGUGAUGUUCAGGUAGGUUUGGGUCCCUUGGCAGCAAAUCGCAUACU [KL-SSTheoB27] ; what apparent KD of K4 kissing-loop reporter value has been reported?
OUTPUT: 181 nM

###

- Test system: MS2 coat protein
- Method description: apparent KD of MS2 coat protein; higher = weaker reporter binding
- Setup conditions: Eterna round: R107; input ligand: arginine 13.2 mM
Below: a set of entries, each annotated with reported apparent KD of MS2 coat protein.
Lab book: enter the figure in nM, no units written.

Construct sequence	Target system	apparent KD of MS2 coat protein (nM)
CUAAGAGCGGCGGCCGCCACUGGUAACCGAGAGGAGGAGCCUCUGACAUGAGGAUCACCCAUGUUCAGGACCGGGUCGUCUUAGA [#06 Same State - Tryptophan B]	MS2 coat protein	41.2
CGAUGCGCAUUAUCCCACUGGUAUGAGUCUCGAGGACCGGUACGGCCGCCACUCGCUACCGUACAUGAGGAUCACCCAUGUAUUA [theeternabot_exclusion_MS2_Trp_A_13]	MS2 coat protein	23.7

Okay, next one:
INPUT: Can you share its apparent KD of MS2 coat protein? I mean this sequence: AAGGUGAUCCGUGAUACCAGCUCAACAUGAGGAUCACCCAUGUAAGCCUGGAAACAGGCGAGCCCUUGGCAGCACGGUAAUAAUA [(M)'-(Theo1)-(Ms2)-(Theo2)-(M'')]
OUTPUT: 12.6

###

- Tested on: MS2 coat protein
- Method description: apparent KD of MS2 coat protein; designed switch direction (-1 OFF switch, 1 ON switch): -1; higher = weaker reporter binding
- Setup conditions: input ligand: microRNA oligo, concentration not stated
Endpoint label: apparent KD of MS2 coat protein (nM)
Answer with a number only, understood to be in nM.

Some entries whose results are on file:
Construct sequence	apparent KD of MS2 coat protein, nM
UUGUUAUGUGUAGGAUAUGCAUAUUAUUAUUAUGCAGAAGGACAUGAGGAUCACCCAUGUGUAUUAUUAUUAUAUAUUAUAUAU [Title] (Eterna round: R96, puzzle: Exclusion NG 1)	17.2
AUUAUAUAGGAAGGAUAUAGAAUAUUAUUUUAACAUGAGGAUCACCCAUGUAACCUUAUGUGUAGCUAGAAGGUCCAUUUGUUA [Title] (Eterna round: R96, puzzle: Exclusion NG 2)	221
UGUUGUCGCGCAGGAUAUGAGGAUCACCCAUAUGGAGGAUAUGAAAAGAAGGUUCUGAGGAUCACCCAGAAGGGCGGGACAACU [pwkr exNG2 2xF5 2xFMN.20] (Eterna round: R96, puzzle: Exclusion NG 2)	43

INPUT: Sample UUUUUACAUGAGGAUCACCCAUGUCAGGAUAUCAUUAUAUUUUAUUAUUUUAUUUAUAUGAGAAGGGACUAUUA [My solution] (Eterna round: R96, puzzle: Exclusion 1) — what was its apparent KD of MS2 coat protein?
OUTPUT: 79.2

INPUT: // apparent KD of MS2 coat protein lookup, key: ACAUGACUGCUAGGAUAUAGAUGACAUGAGGAUCACCCAUGUUGUCUCAUGUUUAUGGAAACGGACUAGAAGGAGUAGUAUAUG [Ex NG2 #15] (Eterna round: R96, puzzle: Exclusion NG 2)
OUTPUT: 14.5

INPUT: Which apparent KD of MS2 coat protein is reported for this sequence? AGUCAAACGGUAGGAUAUCCAUAUCGAGUGACCCUUUCAUAACAUGAGGAUCACCCAUGUCGGUGGGAGAAGGGCCGUAAGGCA [Mat - Exclusion NG 2 - Mod of JL - D70] (Eterna round: R96, puzzle: Exclusion NG 2)
OUTPUT: 43.1

INPUT: Returns the measured apparent KD of MS2 coat protein for the input sequence. Input: AAAAAACAAGCUUUUUGAAACAUGAGGAUCACCCAUGUCUUAUAAAAUAAAAAUAAAAAUAAAAAUAAAAUAAAAAA [Sensor V2: 80 Random] (Eterna round: R96, puzzle: Sensor v2, turn-off variant)
OUTPUT: 67.9

INPUT: // apparent KD of MS2 coat protein lookup, key: GGAGGACGAGCAGGAUAUUUUUACAUGAGGAUCACCCAUGUGUAAUCAGGGUAAUCCUCCACCGAAAAGAAGGGUUCGGAAGAA [Mat - Exclusion NG 2 - Mod of JL - D84] (Eterna round: R96, puzzle: Exclusion NG 2)
OUTPUT: 9.17

INPUT: Look up apparent KD of MS2 coat protein: UACAUGAGGAUCACCCAUGUUUUGUCGUGUAUGGUAUUUAUCUAGGAUAUCAAAUUAUUUAUUUAUGAGAAGGAGAAUAUUAAU [JMF's solution 9] (Eterna round: R96, puzzle: Exclusion NG 3)
OUTPUT: 26.5

###

- System: MS2 coat protein
- Method description: apparent KD of MS2 coat protein; designed switch direction (-1 OFF switch, 1 ON switch): -1; higher = weaker reporter binding
- Setup conditions: input ligand: none
Endpoint label: apparent KD of MS2 coat protein (nM)
Please respond with the number in nM and leave the unit unwritten.

INPUT: Please tell me: apparent KD of MS2 coat protein of UUGCCACAUGAGGAUCACCCAUGUGAGGAUAUGGCCUGUUUGGAGUGUGCUGGUUCUGUCAGAAGGCGCGUGGG [salish99_ex1_r4_033] (Eterna round: R97, puzzle: Exclusion 1) , system MS2 coat protein?
OUTPUT: 33.6

INPUT: Value wanted: apparent KD of MS2 coat protein (MS2 coat protein) of entry CAACCGAAUCAGUGAAUGCCGACAUGAGGAUCACCCAUGUGUGAGGAUAUUUUAGUAGAGAACUAAAAGAAGGCACCUGGAAAG [Eternabot solution 20] (Eterna round: R96, puzzle: Exclusion NG 3)
OUTPUT: 39.8

INPUT: Missing value: apparent KD of MS2 coat protein, MS2 coat protein, entry UAUUAGCAAGCAAGAUCCCACAUGAGGAUCACCCAUGUGCUCGUCGCAUCCAGAAUUACUGGGUGCGCUCGUCUUAU [Winner reversed engineered 16] (Eterna round: R97, puzzle: Sensor, turn-off variant 1) . Fill in?
OUTPUT: 169

INPUT: # get_value(readout= apparent KD of MS2 coat protein, system= MS2 coat protein) for GUCUAGCGAGGAUAUUGCAGACGAAACAUGAGGAUCACCCAUGUGGCCUUGUGCCGUGUGCAAGAAGGCGCGAGGC [Gelelaor] (Eterna round: R97, puzzle: Exclusion 5)
OUTPUT: 268

INPUT: Value wanted: apparent KD of MS2 coat protein (MS2 coat protein) of entry CCUCUACAUGAGGAUCACCCAUGUGAGGAUAUCAAAGUCAGAGCGGCUCUCUGACUCAUGAGAAGGUGCAUGAA [EX1 A.13] (Eterna round: R97, puzzle: Exclusion 1)
OUTPUT: 21.6

From: the supplement of paper PMC9170038
